Biological target: human TLR7 (Homo sapiens (Human))
Sequence (Q9NYK1 27-1049): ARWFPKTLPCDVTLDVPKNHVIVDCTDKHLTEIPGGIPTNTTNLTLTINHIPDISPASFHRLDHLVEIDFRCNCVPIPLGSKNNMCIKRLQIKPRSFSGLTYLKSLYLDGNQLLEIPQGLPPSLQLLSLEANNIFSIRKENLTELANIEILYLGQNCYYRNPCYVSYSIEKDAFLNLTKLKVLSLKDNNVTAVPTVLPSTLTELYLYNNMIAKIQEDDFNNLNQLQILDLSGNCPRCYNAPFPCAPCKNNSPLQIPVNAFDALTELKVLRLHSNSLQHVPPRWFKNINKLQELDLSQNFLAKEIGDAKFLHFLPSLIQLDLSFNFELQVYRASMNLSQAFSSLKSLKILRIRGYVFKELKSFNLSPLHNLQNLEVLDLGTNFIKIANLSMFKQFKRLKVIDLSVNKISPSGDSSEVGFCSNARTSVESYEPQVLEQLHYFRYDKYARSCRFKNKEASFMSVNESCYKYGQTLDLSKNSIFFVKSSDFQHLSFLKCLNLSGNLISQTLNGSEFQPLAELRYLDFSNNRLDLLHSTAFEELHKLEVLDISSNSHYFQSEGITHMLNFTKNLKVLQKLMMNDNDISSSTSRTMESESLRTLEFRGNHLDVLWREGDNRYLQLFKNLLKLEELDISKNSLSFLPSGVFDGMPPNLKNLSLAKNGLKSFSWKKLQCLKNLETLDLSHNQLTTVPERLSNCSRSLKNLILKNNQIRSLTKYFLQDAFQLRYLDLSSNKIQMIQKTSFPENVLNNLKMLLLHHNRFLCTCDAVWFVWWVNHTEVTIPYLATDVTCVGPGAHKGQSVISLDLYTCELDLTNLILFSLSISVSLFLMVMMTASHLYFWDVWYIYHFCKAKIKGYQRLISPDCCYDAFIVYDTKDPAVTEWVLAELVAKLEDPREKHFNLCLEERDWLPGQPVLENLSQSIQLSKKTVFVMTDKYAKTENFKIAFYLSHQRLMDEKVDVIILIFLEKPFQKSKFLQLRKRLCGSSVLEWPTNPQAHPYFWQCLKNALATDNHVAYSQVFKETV
Test: TLR7 inhibition reporter assay (HEK-Blue cells, SEAP reporter, gardiquimod stimulation)
Type: cell-based
Settings: HEK-Blue cells overexpressing human TLR7, gardiquimod 7.5 μM
value_kind: IC50 (nM)

// known answers, use as guide
{"molecule": "Cc1cc(-c2[nH]c3ccc(C4CCN(CC(=O)NC5CCOC5)CC4)cc3c2C(C)C)cc(C)n1 (centres unmarked)", "test_value": 3.7}
{"molecule": "Cc1cc(-c2[nH]c3ccc(C4CCN(C(=O)CN5CCCC(C)C5)CC4)cc3c2C(C)C)cc(C)n1 (centres unmarked)", "test_value": 1.7}
{"molecule": "CC(=O)N1CCC(c2ccc3[nH]c(-c4cc(C)ncc4C)c(C(C)C)c3c2)CC1", "test_value": 43}

A = Cc1cc(-c2[nH]c3ccc(C4CCN(C(=O)CN(C)CC(C)C)CC4)cc3c2C(C)C)cc(C)n1
B = Cc1cc(-c2[nH]c3ccc(C4CCN(Cc5ccn[nH]5)CC4)cc3c2C(C)C)c(C)cn1
C = Cc1cc(-c2[nH]c3ccc(C4CCN(C(=O)CCn5nc(C)cc5C)CC4)cc3c2C(C)C)cc(C)n1
D = Cc1cc(-c2[nH]c3ccc(C4CCN(CCCN(C)C)CC4)cc3c2C(C)C)ccn1
Request: Arrange by IC50, high to low. # list labels per requested ordering
Result: C, B, A, D
(C: 47.4 nM, B: 15.5 nM, A: 8.8 nM, D: 2.6 nM)
